Measured EC50, listed per entry for reference.
Molecular target: Glucagon-like peptide 1 receptor (Homo sapiens)
Sequence (P43220 whole entry): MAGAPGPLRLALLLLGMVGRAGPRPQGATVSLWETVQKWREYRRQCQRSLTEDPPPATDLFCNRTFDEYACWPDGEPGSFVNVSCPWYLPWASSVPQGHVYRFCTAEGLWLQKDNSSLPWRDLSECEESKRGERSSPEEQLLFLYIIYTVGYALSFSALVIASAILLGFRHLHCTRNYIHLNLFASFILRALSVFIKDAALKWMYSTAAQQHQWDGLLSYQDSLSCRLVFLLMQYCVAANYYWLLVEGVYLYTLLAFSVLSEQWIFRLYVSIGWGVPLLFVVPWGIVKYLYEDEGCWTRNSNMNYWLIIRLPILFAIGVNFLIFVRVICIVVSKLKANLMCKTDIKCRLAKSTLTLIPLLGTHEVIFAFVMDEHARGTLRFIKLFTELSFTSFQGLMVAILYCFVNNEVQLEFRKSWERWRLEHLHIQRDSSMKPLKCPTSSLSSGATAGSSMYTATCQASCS
Assay: Agonist activity at human GLP-1R expressed in HEK293 cells assessed as stimulation of cAMP accumulation incubated for 20 mins
Format: functional, cell-based
[ ]: non-standard residue; d: D form. ξ: configuration not given here. Thr(3ξ) = CC(O)[C@H](N)C(=O)O; Aib = CC(C)(N)C(=O)O

Take a look at these entries with their results.
Substance	Target or system	Reported result
H-H[Aib]EG[Thr(3ξ)]YTNDVTEYLEEEAAKEFCEWLIKGCPSSGAPPSKKKKKK-NH2 (cysteines drawn unpaired)	Glucagon-like peptide 1 receptor (Homo sapiens)	0.23 nM
H-H[Aib]EGTYTNDVTEYLEEECAKEFIECLIKGKPSSGAPPSKKKKKK-NH2 (cysteines drawn unpaired)	Glucagon-like peptide 1 receptor (Homo sapiens)	0.1 nM
H-H[Aib]EGTY[Thr(3ξ)]NDV[Thr(3ξ)]EYLEECAAKEFICWLIKGKPSSGAPPSKKKKKK-NH2 (cysteines drawn unpaired)	Glucagon-like peptide 1 receptor (Homo sapiens)	0.073 nM

Consider the additional substance presented here.
## Input Given the substance H-H[Aib]EGTYTNDVTECLEEEAACEFIEWLIKGKPSSGAPPSKKKKKK-NH2 (cysteines drawn unpaired) , what is its reported EC50?
## Output 0.16 nM
